- Tested on: HT-29 cells
- assay-summary: Cell-based necroptosis assay for RIPK1 activity (cell viability, CCK-8)
- protocol-conditions: HT29 (human colon cancer), Z-VAD-FMK 20 μM, human TNFα 10 ng/ml, SM-164 100 nM, 24 h, read-out: Necroptosis inhibition (IC50)
pIC50: −log10 of the molar value.
experimental-endpoint: pIC50

Dear colleague, please send me the reported pIC50 for O=C1Nc2nccnc2CCC1NC(=O)n1cc(Cc2ccccc2)cn1 (stereo not shown) [Example 29] when you can.
< 7.00

Dear colleague, please send me the reported pIC50 for CN1C(=O)[C@@H](NC(=O)n2cc(Cc3cccc(F)c3)cn2)COc2cccc(F)c21 [Example 13] when you can.
> 8.00

Dear colleague, please send me the reported pIC50 for CN1C(=O)[C@@H](NC(=O)n2cc(Cc3cccc(Cl)c3)cn2)COc2ccccc21 [Example 4] when you can.
> 8.00

Dear colleague, please send me the reported pIC50 for CN1C(=O)[C@@H](NC(=O)n2cc(Cc3ccccc3)cn2)COc2cc(F)ncc21 [Example 34] when you can.
> 8.00

###

Could you please report measured IC50 for the items listed next?
- System: HT-29 cells
- assay-summary: Cell-based necroptosis assay for RIPK1 activity (cell viability, CCK-8)
- protocol-conditions: HT29 (human colon cancer), Z-VAD-FMK 20 μM, human TNFα 10 ng/ml, SM-164 100 nM, 24 h, read-out: Necroptosis inhibition (IC50)

Dear colleague, please send me the reported IC50 for CN1C(=O)[C@@H](NC(=O)n2cc(Cc3cccc(F)c3)cn2)COc2ccncc21 when you can.
< 10 nM

Dear colleague, please send me the reported IC50 for O=C1Nc2c(F)cccc2OC[C@@H]1NC(=O)n1cc(Cc2cccc(F)c2)cn1 when you can.
< 100 nM

Dear colleague, please send me the reported IC50 for O=C1Nc2ccccc2OC[C@@H]1NC(=O)n1cc(Cc2cccc(F)c2)cn1 when you can.
< 100 nM

Dear colleague, please send me the reported IC50 for CN1C(=O)[C@@H](NC(=O)n2cc(Cc3cccc(F)c3)cn2)COc2cc(F)ncc21 when you can.
< 10 nM

Dear colleague, please send me the reported IC50 for CN1C(=O)[C@@H](NC(=O)n2cc(Cc3ccccc3)cn2)COc2ccnc(F)c21 when you can.
< 10 nM

Dear colleague, please send me the reported IC50 for O=C1Nc2nccnc2CCC1NC(=O)n1cc(Cc2cccc(F)c2)cn1 (stereo not drawn) when you can.
> 100 nM

Dear colleague, please send me the reported IC50 for CN1C(=O)[C@@H](NC(=O)n2cc(Cc3ccccc3)cn2)COc2cc(Cl)ncc21 when you can.
< 10 nM

Dear colleague, please send me the reported IC50 for CN1C(=O)[C@@H](NC(=O)n2cc(Cc3cccc(F)c3)cn2)COc2ccccc21 when you can.
< 10 nM

Dear colleague, please send me the reported IC50 for COc1ccc2c(c1)OC[C@H](NC(=O)n1cc(Cc3ccccc3)cn1)C(=O)N2C when you can.
< 10 nM

Dear colleague, please send me the reported IC50 for CN1C(=O)C(NC(=O)n2cc(Cc3cccc(F)c3)cn2)CCc2cc(F)cc(F)c21 (stereo not drawn) when you can.
< 10 nM

Dear colleague, please send me the reported IC50 for CN1C(=O)[C@@H](NC(=O)n2cc(Cc3ccccc3)cn2)COc2ccncc21 when you can.
< 10 nM

Dear colleague, please send me the reported IC50 for COc1ccc2c(c1)N(C)C(=O)[C@@H](NC(=O)n1cc(Cc3cccc(F)c3)cn1)CO2 when you can.
< 10 nM

Dear colleague, please send me the reported IC50 for CN1C(=O)[C@@H](NC(=O)n2cc(Cc3cccc(F)c3)cn2)COc2cccnc21 when you can.
< 10 nM

Dear colleague, please send me the reported IC50 for CN1C(=O)[C@@H](NC(=O)n2cc(Cc3cccc(C(F)(F)F)c3)cn2)COc2ccccc21 when you can.
< 100 nM

Dear colleague, please send me the reported IC50 for O=C1Nc2c(F)cc(F)cc2CCC1NC(=O)n1cc(Cc2ccccc2)cn1 (stereo not drawn) when you can.
< 100 nM

Dear colleague, please send me the reported IC50 for CN1C(=O)[C@@H](NC(=O)n2cc(Cc3cccc(C#N)c3)cn2)COc2ccccc21 when you can.
< 10 nM

Dear colleague, please send me the reported IC50 for Cc1cccc(Cc2cnn(C(=O)N[C@H]3COc4ccccc4N(C)C3=O)c2)c1 when you can.
< 10 nM

Dear colleague, please send me the reported IC50 for O=C1Nc2c(F)cc(F)cc2CC[C@@H]1NC(=O)n1cc(Cc2cccc(F)c2)cn1 when you can.
< 10 nM

Dear colleague, please send me the reported IC50 for O=C1Nc2c(F)cc(F)cc2OC[C@@H]1NC(=O)n1cc(Cc2ccccc2)cn1 when you can.
< 100 nM

Dear colleague, please send me the reported IC50 for CN1C(=O)C(NC(=O)n2cc(Cc3ccccc3)cn2)CCc2cc(F)cc(F)c21 (stereo not drawn) when you can.
< 10 nM

Dear colleague, please send me the reported IC50 for CN1C(=O)[C@@H](NC(=O)n2cc(Cc3ccc(F)cc3)cn2)COc2ccccc21 when you can.
< 100 nM

Dear colleague, please send me the reported IC50 for O=C1Nc2ccccc2OC[C@@H]1NC(=O)n1cc(Cc2ccccc2)cn1 when you can.
< 100 nM

Dear colleague, please send me the reported IC50 for O=C1Nc2c(F)cc(F)cc2OC[C@@H]1NC(=O)n1cc(Cc2cccc(F)c2)cn1 when you can.
> 100 nM

Dear colleague, please send me the reported IC50 for CN1C(=O)C(NC(=O)n2cc(Cc3ccccc3)cn2)CCc2nccnc21 (stereo not drawn) when you can.
> 100 nM

Dear colleague, please send me the reported IC50 for CN1C(=O)[C@@H](NC(=O)n2cc(Cc3cccc(F)c3)cn2)COc2cc(F)cc(F)c21 when you can.
< 10 nM

Dear colleague, please send me the reported IC50 for COc1ccc2c(c1)N(C)C(=O)[C@@H](NC(=O)n1cc(Cc3ccccc3)cn1)CO2 when you can.
< 10 nM

Dear colleague, please send me the reported IC50 for CN1C(=O)[C@@H](NC(=O)n2cc(Cc3ccccc3)cn2)COc2cccc(F)c21 when you can.
< 10 nM

Dear colleague, please send me the reported IC50 for O=C1Nc2c(F)cccc2OC[C@@H]1NC(=O)n1cc(Cc2ccccc2)cn1 when you can.
< 100 nM

Dear colleague, please send me the reported IC50 for CN1C(=O)[C@@H](NC(=O)n2cc(Cc3cccc(F)c3)cn2)COc2ccnc(F)c21 when you can.
< 100 nM

Dear colleague, please send me the reported IC50 for Cc1cc2c(cn1)N(C)C(=O)[C@@H](NC(=O)n1cc(Cc3ccccc3)cn1)CO2 when you can.
< 10 nM

Dear colleague, please send me the reported IC50 for CN1C(=O)[C@@H](NC(=O)n2cc(Cc3ccccc3)cn2)COc2cc(F)cc(F)c21 when you can.
< 10 nM

Dear colleague, please send me the reported IC50 for CN1C(=O)[C@@H](NC(=O)n2cc(Cc3ccccc3)cn2)COc2cnccc21 when you can.
< 100 nM

Dear colleague, please send me the reported IC50 for CN1C(=O)[C@@H](NC(=O)n2cc(Cc3ccc(C#N)cc3)cn2)COc2ccccc21 when you can.
< 100 nM
